# System: OVCAR-3 ovarian
# Assay Text: NCI-60 one-dose screen, 48 h (100 = growth as untreated, 0 = no growth, -100 = all killed)
# Stated Conditions: 10 µM unless noted
About 83,000 compounds went through this panel and 20% of them were active in at least one assay; those are over-represented in the sample as a whole. The source made the active and inactive calls. How the source made its calls: active means growth percent below 10; inactive means the rest.

| Molecule | growth |
| --- | --- |
| CC(=O)c1nc(Nc2ccc(C)cc2)sc1C | 97.5% (inactive) |
| COc1ccc(OC)c(-c2c(C#N)c(-c3ccc(Cl)cc3)nc3c2c(-c2ccccc2)nn3-c2ccccc2)c1 | 107% (inactive) |
| CC1(C)OC2C(CO[Si](C)(C)C(C)(C)C)OC(n3c(I)c(C#C[Si](C)(C)C)c(=O)[nH]c3=O)C2O1 (configuration not stated) | -41.1% (active) |
| CCCCCCCCCCN(CCCCCCCCCC)CC(=O)c1ccc2cc(Br)c3ccccc3c2c1 | 51.2% (inactive) |
| COC1=CC(=O)C[C@@H](C)[C@]12Oc1c(Cl)c(OC)cc(OC)c1C2=O | 99.8% (inactive) |
| CN(c1ccccc1)c1ccc2c(c1)OCCC21CC1Nc1cnccc1C(=O)O (configuration not stated) | 77.1% (inactive) |
| CC/C=C/C/C=C/C/C=C/C/C=C/C/C=C/C/C=C/CCC(=O)Nc1ccn([C@@H]2O[C@H](CO)[C@@H](O)C2(F)F)c(=O)n1 | 53.4% (inactive) |
| CC(C)(C)c1ccc(/C=C/C(=O)Nc2ccc(O)cc2)cc1 | 60.4% (inactive) |
| COc1ccc(Cl)cc1NC(=O)C(Br)C(Br)C(=O)O (configuration not stated) | 9.69% (active) |
| Cn1c(-c2c(N)n(Cc3cccnc3)c3nc(C#N)c(C#N)nc23)nc2ccccc21 | 99.5% (inactive) |
| Cc1ccc(Cc2cnc(NC(=O)c3ccc4noc(-c5ccccc5)c4c3)s2)cc1 | 107% (inactive) |
| Cc1ccc(S(=O)(=O)Oc2cc(OS(=O)(=O)c3ccc(C)cc3)cc(OS(=O)(=O)c3ccc(C)cc3)c2)cc1 | 96.3% (inactive) |
| O=c1cc(-c2ccc(Cl)cc2)[nH]c2ccccc12 | 81.7% (inactive) |
| Cc1cccc(Cc2cnc(NC(=O)c3ccc4nnsc4c3)s2)c1 | 104% (inactive) |
| O=C1OC(c2nc3ccccc3s2)=C/C1=C\c1ccc(O)cc1 | 110% (inactive) |
| Cc1cc(NCc2cc(Nc3ccnc4cc(Cl)ccc34)ccc2F)nc(N2CCN(C)CC2)n1 | -17.4% (active) |
| O=C1NC(=Nc2ccc(Cl)cc2)S/C1=C\c1cn(-c2ccccc2)nc1-c1ccccc1 | 89.2% (inactive) |
| CC/C=C\C/C=C\C[C@H](O)C/C=C1/C(=O)C=C[C@@H]1C/C=C\CCCC(=O)O | 7.83% (active) |
| Cc1ccc(S(=O)(=O)n2cc(CNc3ccc(N4CCOCC4=O)cc3)c3ccccc32)cc1 | 86.8% (inactive) |
| COc1cc(C2CC(=O)Nc3c2c(C)nn3-c2nc3ccccc3[nH]2)c(OC)c(OC)c1OC (configuration not stated) | 12.2% (inactive) |
| NNC(=O)c1nc(N)n(-c2ccc(S(N)(=O)=O)cc2)n1 | 89.2% (inactive) |
| COc1ccc(/C=C/c2c(C(=O)/C=C/c3ccc(F)cc3)c(C)nc3ccccc23)cc1 | 37.5% (inactive) |
| S=C(c1ccc2c(c1)OCO2)N1CCN(c2ccccc2Cl)CC1 | 112% (inactive) |
| COc1cc(-c2nc(N3CCN(C)CC3)c3ccccc3n2)cc(OC)c1OC | 3.18% (active) |
| COC(=O)[C@]12CC[C@@H](C)[C@H](C)[C@@H]1C1=CC[C@@H]3[C@@]4(C)C(C=O)=C[C@@](C)(CO)[C@@H]4[C@H](O)C[C@@]3(C)[C@]1(C)CC2 | -91.9% (active) |
| COc1cccc(-c2nn(-c3ccccc3)cc2-c2ccnc(NCCCNC(=O)c3cccc(C(F)(F)F)c3)c2)c1 | 41.4% (inactive) |
| CC1(c2ccccc2)NC(=O)N(NC(=O)CSc2nc(-c3cccs3)nc3ccccc23)C1=O (configuration not stated) | 95.9% (inactive) |
| COc1cccc(-c2nc3sccn3c2/C=C/C(=O)c2ccc(C(F)(F)F)cc2)c1 | 78.9% (inactive) |
| COC(=O)[C@]12CC[C@@H](C)[C@H](C)[C@@H]1C1=CC[C@@H]3[C@@]4(C)C(C=O)=C[C@@](C)(COC(=O)c5ccco5)[C@@H]4C(=O)C[C@@]3(C)[C@]1(C)CC2 | 40.4% (inactive) |
| CC1=C(SCCC(=O)OC(C[Se]C2=C(C)C(=O)c3ccccc3C2=O)C(=O)NCCCCCC(=O)OCc2ccccc2)C(=O)c2ccccc2C1=O (configuration not stated) | 21% (inactive) |
| O=C(N=c1oc2ccccc2cc1-c1cc2ccccc2[nH]1)c1ccc(Cl)cc1 | 50.5% (inactive) |
| O=C(O)CN1C(=O)CCC1=O | 115% (inactive) |
| COc1cccc(/C=C/C(=O)c2c(C)nc3ccccc3c2/C=C/c2ccc(C)cc2)c1OC | 52.4% (inactive) |
| O=C(COc1ccc(/C=C2\Oc3ccccc3C2=O)cc1)Nc1nc2c(s1)CCCC2 | 29.3% (inactive) |
| CCCCCCCCCOc1c(OC)cc(C2CC(=O)Nc3c2c(C)nn3-c2nc3ccccc3[nH]2)cc1OC (configuration not stated) | -63.3% (active) |
| Cc1ccc(Nc2nc(N)nc(CSCC(=O)NN)n2)cc1 | 105% (inactive) |
| CCCCNC(=O)Oc1ccc2c(=O)c3sc4c(=O)c5ccccc5c(=O)c4c3c(=O)c2c1 | -69.5% (active) |

====

# System: UACC-257 melanoma
# Assay Text: NCI-60 one-dose screen, 48 h (100 = growth as untreated, 0 = no growth, -100 = all killed)
# Stated Conditions: 10 µM unless noted
# Protocol: Cells are grown in 96 well plates and exposed to the test compound for 48 hours. Compounds are tested at a single concentration, which is 10^-5 M for most compounds. The reported endpoint is percent growth (GI% or GIPRCNT), where numbers from 0 - 100% represent growth inhibition, and numbers from -100% - 0 represent cell death. For example, a value of 40 represents 60% growth inhibition. A value of 0 means no net growth occurred over the course of the experiment. […]
About 83,000 compounds went through this panel and 20% of them were active in at least one assay; those are over-represented in the sample as a whole.
Mark Yes only for growth values smaller than 80%; exact matches and larger values are No.

| Compound | Class Label |
| --- | --- |
| Cc1ccc(Nc2ccc(Nc3ccc(C)cc3)c3c2C(=O)c2cccc(O)c2C3=O)cc1 | No |
| COc1cccc(-c2nn(-c3ccccc3)cc2-c2ccnc(NCCNC(=O)Nc3cccc(C(F)(F)F)c3)c2)c1 | Yes |
| Cc1ccc(Cl)cc1NC(=O)c1cc2ccccc2cc1O | Yes |
| O=C(NCCc1ccc(O)c(O)c1)C12CC3CC(CC(C3)C1)C2 | No |
| COC(=O)[C@H](CSC)N(C)C(=O)[C@@H]1CSSC[C@@H](NC(=O)c2nc3ccccc3cc2O)C(=O)NCC(=O)N1C | Yes |
| CC(C)(C)C(CCc1ccc(Cl)cc1)N1CCN(C2CCCCC2)CC1 (centres undefined) | Yes |
| COc1cc(C2CC(c3ccc(Nc4ccnc5cc(Cl)ccc45)cc3)=NN2C=O)cc(OC)c1OC (centres undefined) | Yes |
| O=C(COc1ccc(/C=C2\Oc3ccccc3C2=O)cc1)Nc1nc2c(s1)CCCC2 | No |
| CS(=O)c1cccc(-c2ccc3nc(N)n(-c4ccc(C(F)(F)F)cc4)c(=O)c3c2)c1 (centres undefined) | No |
| CS(=O)(=O)c1ccc(Nc2nc(N[C@H]3CCCC[C@H]3N)nc3cc[nH]c(=O)c23)cc1 | Yes |
| Cc1ccc2[nH]c(=O)c3c(c2c1)OC(N)=C(C#N)C31c2cc(Br)ccc2-c2ccc(Br)cc21 | Yes |
| COc1ccc(Cl)cc1NC(=O)C(Br)C(Br)C(=O)O (centres undefined) | Yes |
| CN(C)c1ccc(-c2cc(-c3ccc(Nc4nc(Nc5ccc(Cl)cc5)nc(Nc5ccc(Cl)cc5)n4)cc3)no2)cc1 | Yes |
| CCCCn1c(=O)c2c(nc(NCCc3ccc(O)c(O)c3)n2CCC)n(CCCC)c1=O | No |
| N=C1C(c2nc(-c3ccc(Br)cc3)cs2)=C(O)CN1CC1CCCO1 (centres undefined) | No |
| Cc1ccc(N2CCN(C(=S)c3cccs3)CC2)cc1 | No |
| Cc1ccc(NCCN(C)C)c2c(=O)c3ccccc3sc12 | Yes |
| Fc1c[c-]c(-c2ccccn2)c(F)c1.[CH3-].[Pt+2].c1ccc(P(C[PH+](c2ccccc2)c2ccccc2)c2ccccc2)cc1 | Yes |
